- Read-out: Interferon-gamma inducible Protein 10 (IP10), CXCL10 (gene 3627)
- procedure.summary: BSK_BE3C_IP10: BioMAP Diversity Plus: BE3C Assay for Interferon-gamma inducible Protein 10 (IP10) Biomarker Activity (AID 2283034)
- test.parameters: primary human bronchial epithelial cells; actives raise or lower the signal
- Description: BSK_BE3C is a cell-based, multiplexed-readout assay that uses bronchial epithelial cell, a human lung primary cell, with measurements taken at 24 hours after chemical dosing in a 96-well plate.BSK_BE3C_IP10 is an assay component measured in the BSK_BE3C assay. It measures IP-10 antibody related to regulation of gene expression using ELISA technology.Data from the assay component BSK_BE3C_IP10 was analyzed into 1 assay endpoint. […]
The source made the active and inactive calls. The calls were made as follows: active = hit-call score of the fitted dose curve at least 0.9, where 1 is the maximum; inactive = score below 0.9.
Possible outcomes: active, inactive

compound	cat
CC(C)(c1ccccc1)c1ccc(O)c(C(C)(C)c2ccccc2)c1	active
O=C(O)C(Cl)(Cl)Cl	inactive
C=C(C)C(=O)[O][Sn]([CH2]CCC)([CH2]CCC)[CH2]CCC	active
Oc1ccc(-c2ccccc2)cc1	inactive
CCSC(C)CC1CC(=O)C(C(CC)=NOC/C=C/Cl)=C(O)C1 (centres undefined)	inactive
C[C@]12CCC(=O)C[C@@H]1CC[C@@H]1[C@@H]2CC[C@]2(C)[C@@H](O)CC[C@@H]12	inactive
CCC(C)(C)c1ccc(O)c(C(C)(C)CC)c1	active
CC1(C)Cc2cccc(O)c2O1	inactive
CCOP(=S)(OCC)Oc1ccc(S(C)=O)cc1 (centres undefined)	inactive
CC12CC1(C)C(=O)N(c1cc(Cl)cc(Cl)c1)C2=O (centres undefined)	inactive
CC(C)(C)c1cc(O)ccc1O	active
COC(=O)Cc1ccccc1	inactive
C=CC(=O)OCCCCCC(C)C	inactive
CCCCC(CC)CO[N+](=O)[O-] (centres undefined)	inactive

Reference for the values: PubChem BioAssay (EPA / NIEHS)
